Values were extracted from ChEMBL document CHEMBL5308504.

# SYSTEM_UNDER_TEST: UniProtKB P22607
# Sequence (P22607 23-806 limits assumed): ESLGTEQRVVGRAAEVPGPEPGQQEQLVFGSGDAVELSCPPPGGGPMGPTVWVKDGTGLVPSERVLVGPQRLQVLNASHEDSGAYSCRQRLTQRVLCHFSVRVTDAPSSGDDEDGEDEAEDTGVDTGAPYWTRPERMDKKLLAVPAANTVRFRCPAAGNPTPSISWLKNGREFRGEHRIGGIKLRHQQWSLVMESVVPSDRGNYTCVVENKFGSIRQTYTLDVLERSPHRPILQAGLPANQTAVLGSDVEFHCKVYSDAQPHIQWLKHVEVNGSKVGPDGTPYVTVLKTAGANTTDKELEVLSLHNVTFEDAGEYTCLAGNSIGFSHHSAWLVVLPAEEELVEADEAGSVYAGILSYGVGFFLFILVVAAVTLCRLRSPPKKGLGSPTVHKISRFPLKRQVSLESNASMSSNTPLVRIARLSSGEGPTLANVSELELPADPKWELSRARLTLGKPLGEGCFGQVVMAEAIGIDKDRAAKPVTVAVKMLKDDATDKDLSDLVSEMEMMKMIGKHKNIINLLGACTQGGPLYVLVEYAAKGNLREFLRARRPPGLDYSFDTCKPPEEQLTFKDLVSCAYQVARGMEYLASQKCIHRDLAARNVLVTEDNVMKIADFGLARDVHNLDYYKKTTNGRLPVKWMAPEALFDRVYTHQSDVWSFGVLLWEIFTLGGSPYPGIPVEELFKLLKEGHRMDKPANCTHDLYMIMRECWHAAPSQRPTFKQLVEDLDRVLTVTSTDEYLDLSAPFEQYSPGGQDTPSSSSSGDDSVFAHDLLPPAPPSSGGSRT
# DETAILS: Compound concentration 20.0 uM, Protein concentration 2.0 uM, Result type QC Liability
# Description: Thermal Shift Assay. Domain: start/stop: P449-E759
Attribute: ΔTm

Examples with their reported ΔTm follow.
# COMPOUND, ΔTm
measured = [
    ("CC(C)(O)CNC(=O)N1C(=O)N(c2cccc(C(F)(F)F)c2)C2=C(C(=O)CC2)[C@H]1c1ccc(C#N)cc1", "0.72 °C"),
    ("CN(C)C/C=C/C(=O)Nc1cc2c(Nc3ccc(F)c(Cl)c3)ncnc2cc1OC[C@@H]1CCCO1", "1.49 °C"),
    ("O=C(O)C[C@H]1CCn2c1c(Sc1ccc(Cl)cc1)c1ccc(F)cc12", "-0.05 °C"),
]

We next turn to a different compound, shown below.
Given the entry CC[C@@H]1C(=O)N(C)c2cnc(Nc3ccc(C(=O)NC4CCN(C)CC4)cc3OC)nc2N1C1CCCC1 , report its measured ΔTm.
0.55 °C
